# experimental.system: wild-type EGFR (Homo sapiens)
# Construct: purchased Signalchem
# Sequence (P00533 25-1210): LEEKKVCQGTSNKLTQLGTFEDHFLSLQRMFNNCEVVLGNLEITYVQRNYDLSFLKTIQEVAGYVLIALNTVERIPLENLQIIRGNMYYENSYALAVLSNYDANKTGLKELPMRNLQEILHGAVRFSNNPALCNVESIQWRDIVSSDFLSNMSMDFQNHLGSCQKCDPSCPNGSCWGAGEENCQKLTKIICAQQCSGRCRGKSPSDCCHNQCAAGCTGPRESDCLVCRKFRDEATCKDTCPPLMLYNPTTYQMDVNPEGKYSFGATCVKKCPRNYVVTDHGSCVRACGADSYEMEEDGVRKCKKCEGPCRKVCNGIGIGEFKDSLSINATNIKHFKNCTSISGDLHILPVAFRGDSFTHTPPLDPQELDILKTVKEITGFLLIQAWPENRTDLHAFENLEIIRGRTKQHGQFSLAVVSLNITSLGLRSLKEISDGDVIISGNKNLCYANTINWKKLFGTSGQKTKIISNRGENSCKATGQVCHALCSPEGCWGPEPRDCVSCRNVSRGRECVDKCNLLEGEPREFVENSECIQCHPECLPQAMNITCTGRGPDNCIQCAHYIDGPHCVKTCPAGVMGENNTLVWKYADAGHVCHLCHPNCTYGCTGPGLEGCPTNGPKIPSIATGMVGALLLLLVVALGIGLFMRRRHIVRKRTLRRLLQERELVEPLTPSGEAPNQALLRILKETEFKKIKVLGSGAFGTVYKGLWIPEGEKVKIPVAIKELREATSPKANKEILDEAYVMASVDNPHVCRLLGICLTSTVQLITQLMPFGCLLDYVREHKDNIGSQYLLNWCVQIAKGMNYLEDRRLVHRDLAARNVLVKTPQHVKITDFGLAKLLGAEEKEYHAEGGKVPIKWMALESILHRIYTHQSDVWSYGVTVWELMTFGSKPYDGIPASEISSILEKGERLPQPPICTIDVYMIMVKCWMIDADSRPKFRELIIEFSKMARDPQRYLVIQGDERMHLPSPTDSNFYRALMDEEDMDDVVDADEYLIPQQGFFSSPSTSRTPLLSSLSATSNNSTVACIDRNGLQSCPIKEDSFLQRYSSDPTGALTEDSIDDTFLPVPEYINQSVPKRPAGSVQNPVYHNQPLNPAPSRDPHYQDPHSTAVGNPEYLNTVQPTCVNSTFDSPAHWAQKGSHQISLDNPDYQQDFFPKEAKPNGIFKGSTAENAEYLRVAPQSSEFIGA
# measurement.protocol: Enzymology experiment in vitro (HTRF/FRET kinase activity), wild-type EGFR
# Assay type: biochemical
# measurement.parameters: HTRF KinEASE-TK, read-out: EGFR (WT) IC50
# Procedure: 1. Experimental Materials HTRF KinEASE-TK kit detection reagent, purchased from Cisbio 1) 10 nL of gradient diluted compound was transferred into a 384-well experimental plate using Echo 550 (Labcyte). 2) 5 μL of 2×EGFR enzyme solution was added to the 384-well experimental plate and incubated at room temperature for 10 minutes. 3) 5 μL of 2× substrate solution containing polypeptide and ATP was added to the 384-well experimental plate and incubated at room temperature for 40 minutes. […]
measurement.label: IC50 (nM)
Write the value in nM as a bare number.

Use the examples below as a reference point.
{"molecule": "[2H]C1([2H])OC([2H])([2H])C([2H])([2H])N(c2cc(OC)c(Nc3ncc(C)c(Nc4ccc5nccnc5c4P(C)(C)=O)n3)cc2-c2cnn(C)c2)C1([2H])[2H]", "unit.info": "nM", "reading": 1.14}
{"molecule": "COc1cc(N(C)C)c(-c2cnn(C)c2)cc1Nc1ncc(Br)c(Nc2ccc3nccnc3c2P(C)(C)=O)n1", "unit.info": "nM", "reading": 3.07}
{"molecule": "COc1cc(N2CCC3(CCN(CCF)CC3)CC2)c(-c2cnn(C)c2)cc1Nc1ncc(Cl)c(Nc2ccc3nccnc3c2P(C)(C)=O)n1", "unit.info": "nM", "reading": 2.49}
{"molecule": "COc1cc(N2CCOCC2)c(-c2ccsc2)cc1Nc1ncc(Br)c(Nc2ccc3nccnc3c2P(C)(C)=O)n1", "unit.info": "nM", "reading": 345}
{"molecule": "COc1cc(N2CCOC(C)C2)c(-c2cnn(C)c2)cc1Nc1ncc(Br)c(Nc2ccc3nccnc3c2P(C)(C)=O)n1 (stereo not shown)", "unit.info": "nM", "reading": 3.57}

(Q) Output measured IC50 for this item: "COCCN1CCN(c2cc(OC)c(Nc3ncc(Br)c(Nc4ccc5nccnc5c4P(C)(C)=O)n3)cc2-c2cnn(C)c2)CC1"
(A) 2.34

(Q) Output measured IC50 for this item: "COc1cc(N2C[C@H]3C[C@@H]2CO3)c(-c2cnn(C)c2)cc1Nc1ncc(Br)c(Nc2ccc3nccnc3c2P(C)(C)=O)n1"
(A) 5.41

(Q) Output measured IC50 for this item: "CN(C)c1c(-c2cnn(C)c2)cc(Nc2ncc(Br)c(Nc3ccc4nccnc4c3P(C)(C)=O)n2)c2c1CCO2"
(A) 3.37

(Q) Output measured IC50 for this item: "COc1cc(N2CCC3(CCN(C)CC3)CC2)c(-c2cnn(C)c2)cc1Nc1ncc(Br)c(Nc2ccccc2N(C)S(=O)(=O)C2CC2)n1"
(A) 12.2

(Q) Output measured IC50 for this item: "COc1cc(N2CCC(N3CC[C@H](OC)[C@H](F)C3)CC2)c(-c2cnn(C)c2)cc1Nc1ncc(Br)c(Nc2ccc3nccnc3c2P(C)(C)=O)n1"
(A) 2.42
